All values here come from ChEMBL document CHEMBL1201862.

# Test system: NCI-H460
# ASSAY NAME: NCI tumour cell line growth inhibition, 48 h
The source made the active and inactive calls. Cut-off read from the data, not from the text of the source: active = GI50 up to about 1.1 µM and inactive = higher.
QUANTITY: GI50

Here's what some known entries look like.
COMPOUND: Cc1nn2c(=O)c([N+](=O)[O-])c(/C=C/c3ccco3)nc2s1
OBSERVED MEASUREMENT: 36.2 µM (inactive)

COMPOUND: O=C1Nc2ccccc2/C1=C\c1c(Cl)nc2n1CCS2
OBSERVED MEASUREMENT: 18.2 µM (inactive)

COMPOUND: O=C1[C@@H]2C3SC(c4ccccc43)[C@@H]2C(=O)N1c1ccccc1
OBSERVED MEASUREMENT: > 100 µM (inactive)

COMPOUND: Cc1ccc(Oc2ccc([N+](=O)[O-])cc2[N+](=O)[O-])c(C)c1
OBSERVED MEASUREMENT: 37.3 µM (inactive)

COMPOUND: COc1ccc(S(=O)(=O)N2C(=O)CCC2C(=O)NC(N)=O)cc1 (stereo unspecified)
OBSERVED MEASUREMENT: > 100 µM (inactive)

Turning now to a further compound:
Challenge: Specify measured GI50 for CC1(C)OC([C@H](O)CO)C([C@H]2NCCS2)O1 (stereo partly specified) .
Response given: > 100 µM (inactive)

---

# Tested on: A549
# ASSAY NAME: NCI tumour cell line growth inhibition, 48 h
Calls of active or inactive are those of the source. Cut-off read from the data, not from the text of the source: active = GI50 up to about 1.1 µM and inactive = higher.
Classes to choose from: label 1 = active, label 0 = inactive

Sample answers from the record:
COMPOUND: COCO[C@@H]1C[C@H]2C(O)Nc3ccccc3C(=O)N2C1 (some centres not stated)
CLASS NAME: label 0
//
COMPOUND: O=C(O)CC(CC(=O)O)n1cccc1
CLASS NAME: label 0
//
COMPOUND: CN1CC(c2ccccc2)N(CCCCN2CC(c3ccccc3)N(C)CC2c2ccccc2)CC1c1ccccc1 (configuration not stated)
CLASS NAME: label 0
//
COMPOUND: Cc1nc(C(N)=S)sc1C(/C=C/c1ccc(Cl)c(Cl)c1)=N/NC(C)(C)C
CLASS NAME: label 0
//
COMPOUND: O=C1CCCC2(c3ccccc3)Nc3ccccc3N12 (configuration not stated)
CLASS NAME: label 0

Challenge: Kindly provide the recorded test outcome for the following compound: `CC1(C)N=C(N)N=C(N)N1CCCCc1ccccc1`
Response given: label 1

Challenge: Could you check what this test reported for `COc1c2cc([N+](=O)[O-])cc1CNC(=O)CN1CCOCCOCCN(CCOCCOCC1)CC(=O)NC2` ?
Response given: label 0

Challenge: Which outcome was assigned to `COc1cccc(-c2cc(O)c3cc(N4CCOCC4)ccc3n2)c1` in this test?
Response given: label 1

Challenge: Hi, do you know how `Cc1ccc(S(=O)(=O)NC(=O)C2(Br)S(=O)(=O)OCCOS2(=O)=O)cc1` came out in this test?
Response given: label 0

Challenge: Kindly provide the recorded test outcome for the following compound: CC(=O)NC(CCCNC(=O)OCc1ccccc1)C(=O)O (configuration not stated)
Response given: label 0

Challenge: Recorded call for `CCc1nc(N)nc(N)c1-c1ccc(Cl)cc1` ?
Response given: label 0

Challenge: Which outcome did this test record for the compound O=C(O)CSC(CC(=O)c1ccc(Cl)cc1)c1ccc(Cl)cc1 (configuration not stated) ?
Response given: label 0

Challenge: Fill in: this test's call for `N=c1oc2ccc([N+](=O)[O-])cc2cc1C(=O)NCc1ccccc1` is ___
Response given: label 0

Challenge: GET /call?item= `CC(C)Oc1cc2c(cc1O)CC[C@@H]1[C@@H]2CC[C@]2(C)[C@@H](O)CC[C@@H]12` returns the recorded outcome of this test.
Response given: label 0

Challenge: Call for entry `O=C(O)Cc1cc(=O)oc2cc(O)c(Cl)cc12` :
Response given: label 0

Challenge: What was the test verdict on `COC(=O)/C=C/N1CC1` ?
Response given: label 0

Challenge: Hi, do you know how Cc1cn(CCCCCOC(=O)NC(CCCNC(N)=O)C(=O)O)c(=O)[nH]c1=O (configuration not stated) came out in this test?
Response given: label 0

Challenge: Entry `O=C1C(Cl)=C(Nc2ccc(OC(F)(F)F)cc2)C(=O)c2c(O)ccc(O)c21` : call = ?
Response given: label 0

Challenge: What call does the record list for `Cc1ccccc1C(=O)Oc1ccc(Oc2ccccc2)cc1` ?
Response given: label 0

Challenge: Could you kindly confirm the outcome this assay logged for COC1OC(C(=O)O)C2OC(C)(C)OC12 (configuration not stated) ?
Response given: label 0

Challenge: So what was the verdict on COc1cccc(C2c3cc4c(cc3OC(Nc3ccccc3)C2C)OCO4)c1O (configuration not stated) in this test?
Response given: label 0

Challenge: Write down the call the test reported for this compound. Item: `O=C(CSc1nnc(-c2ccc(/N=C\c3ccc(Cl)cc3)cc2)o1)Nc1ccccc1`
Response given: label 0
